# System: Haemophilus influenzae
# procedure-details: Antibacterial activity against Haemophilus influenzae ATCC 49247 after 16 to 22 hrs by broth dilution method
# Assay type: functional
Let's look at some molecules and their measured MIC.
property-label: MIC

* CC[C@H]1OC(=O)[C@H](C)[C@@H](O[C@H]2C[C@@](C)(OC)[C@@H](O)[C@H](C)O2)[C@H](C)[C@@H](O[C@@H]2O[C@H](C)C[C@H](N(C)C)[C@H]2O)[C@](C)(O)C[C@@H](C)CN(CCCNC(=O)Nc2ccc3ccccc3c2)[C@H](C)[C@@H](O)[C@]1(C)O | 2 µg/mL
* CC[C@H]1OC(=O)[C@H](C)[C@@H](O[C@H]2C[C@@](C)(OC)[C@@H](O)[C@H](C)O2)[C@H](C)[C@@H](O[C@@H]2O[C@H](C)C[C@H](N(C)C)[C@H]2O)[C@](C)(O)C[C@@H](C)CN(CCCN(CCC#N)C(=S)NCCc2ccccc2)[C@H](C)[C@@H](O)[C@]1(C)O | 4 µg/mL
* CC[C@H]1OC(=O)[C@H](C)[C@@H](O[C@H]2C[C@@](C)(OC)[C@@H](O)[C@H](C)O2)[C@H](C)[C@@H](O[C@@H]2O[C@H](C)C[C@H](N(C)C)[C@H]2O)[C@](C)(O)C[C@@H](C)CN(CCCN(CCC#N)C(=O)Nc2cccc3ccccc23)[C@H](C)[C@@H](O)[C@]1(C)O | 4 µg/mL
* CC[C@H]1OC(=O)[C@H](C)[C@@H](O[C@H]2C[C@@](C)(OC)[C@@H](O)[C@H](C)O2)[C@H](C)[C@@H](O[C@@H]2O[C@H](C)C[C@H](N(C)C)[C@H]2O)[C@](C)(O)C[C@@H](C)CN(CCCNC(=S)Nc2cccc3ccccc23)[C@H](C)[C@@H](O)[C@]1(C)O | 2 µg/mL

---

# Tested on: Escherichia coli
# procedure-details: Antibacterial activity against Escherichia coli ATCC 25922 after 16 to 22 hrs by broth dilution method
# Type: functional
property-label: MIC (µg/mL)

* CC[C@H]1OC(=O)[C@H](C)[C@@H](O[C@H]2C[C@@](C)(OC)[C@@H](O)[C@H](C)O2)[C@H](C)[C@@H](O[C@@H]2O[C@H](C)C[C@H](N(C)C)[C@H]2O)[C@](C)(O)C[C@@H](C)CN(CCCNC(=O)NC(C)c2cccc3ccccc23)[C@H](C)[C@@H](O)[C@]1(C)O (some centres undefined) | 32
* CC[C@H]1OC(=O)[C@H](C)[C@@H](O[C@H]2C[C@@](C)(OC)[C@@H](O)[C@H](C)O2)[C@H](C)[C@@H](O[C@@H]2O[C@H](C)C[C@H](N(C)C)[C@H]2O)[C@](C)(O)C[C@@H](C)CN(CCCNC(=S)Nc2cccc3ccccc23)[C@H](C)[C@@H](O)[C@]1(C)O | 8
* CC[C@H]1OC(=O)[C@H](C)[C@@H](O[C@H]2C[C@@](C)(OC)[C@@H](O)[C@H](C)O2)[C@H](C)[C@@H](O[C@@H]2O[C@H](C)C[C@H](N(C)C)[C@H]2O)[C@](C)(O)C[C@@H](C)CN(CCCNC(=S)NCc2ccccc2)[C@H](C)[C@@H](O)[C@]1(C)O | 16
* CC[C@H]1OC(=O)[C@H](C)[C@@H](O[C@H]2C[C@@](C)(OC)[C@@H](O)[C@H](C)O2)[C@H](C)[C@@H](O[C@@H]2O[C@H](C)C[C@H](N(C)C)[C@H]2O)[C@](C)(O)C[C@@H](C)CN(CCCN(CCC#N)C(=O)NCc2ccccc2)[C@H](C)[C@@H](O)[C@]1(C)O | 8
